TEST TARGET: human cardiac troponin C C84Y (human, UniProt P63316 1-161, C84Y)
ASSAY INFO: NMR titration; 1H-15N HSQC spectra at 37 °C of WT or C84Y cTnC in the Ca2+-bound (primed) state, without peptide and with increasing concentrations of peptide (15, 40, 70, 120, 150 and 200 μM); normalized 1H chemical shifts against peptide concentration
CONDITION LABEL: both partners purified
MEASURE: Kd (µM)
The figure you give is taken to be in µM; do not add the unit.

Inquiry: What value of measured Kd is listed for Ac-LTQKIFDLRGKFKRPTLRRV-NH2 (source: synthetic peptide (Genscript, purity higher than 95%)) [inhibitory cardiac TnI peptide iTnI128-147] ?
Reply text: 66
